biological target: MLL–WDR5–RbBP5 core complex (trimeric complex) (Homo sapiens); assay: Methyltransferase activity of trimeric MLL complex; format: biochemical; conditions: IC50, 125 nM (0.125 μM) trimeric MLL complex
Measurement kind: pIC50
Answers are plain numbers, as −log10 of the molar value.

What is its pIC50 for MLL–WDR5–RbBP5 core complex (trimeric complex) (Homo sapiens)? Entry: COC(=O)c1ccc(N2CCN(C)CC2)c(NC(=O)c2cccc(OC)c2)c1 [WDR5-0103]
4.41

====

target: MLL–WDR5–RbBP5 core complex (trimeric complex) (Homo sapiens, UniProt P61964); assay: Methyltransferase activity of trimeric MLL complex; assay type: biochemical; conditions: IC50, 1000 nM trimeric MLL complex
Measurement kind: pIC50
One number for each entry, as −log10 of the molar value.

Recorded pIC50 for "COC(=O)c1ccc(N2CCN(C)CC2)c(NC(=O)c2cccc(OC)c2)c1" , please?
3.55

====

// WDR5 (Homo sapiens, UniProt P61964) Kd records
Answers are plain numbers, in nM.

INSERT INTO assay_data (line_notation, target_of_assay, endpoint_result) VALUES
  ('CN1CCN(c2ccc([N+](=O)[O-])cc2NC(=O)c2ccccc2)CC1', 'WDR5 (Homo sapiens, UniProt P61964)', 5500);

Please examine the following record next.
Recorded Kd for "COC(=O)c1ccc(N2CCN(C)CC2)c(NC(=O)c2cccc(OC)c2)c1" , please?
450
